- Test system: A549
- assay.comment: relative viability (normalised to negative control = 1, bortezomib = 0) (fraction); higher = less cytotoxic
- stated.conditions: inflammatory serum-free RHB-A with cytokines + LPS; 5 d + 24 h CellTiter-Blue; compound 300 nM; GSK126 pretreatment: none (vehicle)

| molecule | relative viability |
| --- | --- |
| CC[C@H](Nc1ncnc2nc[nH]c12)c1nc2cccc(F)c2c(=O)n1-c1ccccc1 | 0.852 |
| NC(=O)c1ccc(-c2nc(-c3ccccn3)c(-c3ccc4c(c3)OCO4)[nH]2)cc1 | 0.882 |
| N#CCNC(=O)c1ccc(-c2ccnc(Nc3ccc(N4CCOCC4)cc3)n2)cc1 | 1.4 |
| CC(=O)c1c(C)c2cnc(Nc3ccc(N4CCNCC4)cn3)nc2n(C2CCCC2)c1=O | 0.931 |
| COc1cc(N2CCC(N3CCN(C)CC3)CC2)ccc1Nc1ncc(Cl)c(Nc2ccccc2S(=O)(=O)C(C)C)n1 | 0.259 |
| CNC(=O)c1ccccc1Sc1ccc2c(/C=C/c3ccccn3)n[nH]c2c1 | 0.891 |
| CC1(C)CNc2cc(NC(=O)c3cccnc3NCc3ccncc3)ccc21 [Motesanib Diphosphate] | 0.918 |
| Clc1ccc(C(c2ccccc2Cl)C(Cl)Cl)cc1 (centres undefined) | 0.983 |
| S=P(N1CC1)(N1CC1)N1CC1 [Thiotepa] | 0.935 |

Ref: the supplement of paper PMC6279402
